# test: Plasma protein binding, rat
# Type: in vitro ADME
# condition_description: read-out: Plasma Protein Binding %, r (converted)
endpoint_name: fraction unbound
Form field (numeric): enter value without unit.

// query Would you kindly share the measured fraction unbound for CC(=O)N(C)c1cccnc1Nc1nc(-c2ccc(OC(C)C)cn2)ns1 [Compound 47] ?
// result 0.05

* * *

Reported logD at 24 h values for the following compounds.
# test: LogD measurement (octanol-water)
# Assay type: physicochemical
# condition_description: pH 7.4; read-out: logD
# Text: LogD Measurement: Measurement of octanol-water distribution coefficient of samples using a […] stock solutions for plating. […]

# count of solved cases: 10
INSERT INTO measurements (chemical_smiles, endpoint_name, result) VALUES
  ('CC(C)c1ccnc(-c2nsc(Nc3cc(C(F)(F)F)ccn3)n2)c1', 'logD at 24 h', 3),
  ('c1ccc(Nc2nc(-c3ccccn3)ns2)nc1', 'logD at 24 h', 1.8),
  ('CC(C)Oc1ccc(-c2nsc(Nc3ncccc3N(C)C)n2)nc1', 'logD at 24 h', 3.23),
  ('Cc1cccnc1Nc1nc(-c2cc(C#N)ccn2)ns1', 'logD at 24 h', 2),
  ('Cc1cccnc1Nc1nc(-c2ncc(OC(C)C)cn2)ns1', 'logD at 24 h', 2.9),
  ('Cc1cccnc1Nc1nc(-c2ccc(OC3CC3)cn2)ns1', 'logD at 24 h', 3.4),
  ('CC(C)Oc1cccnc1-c1nsc(Nc2ncc(C(F)(F)F)cc2C(=O)N(C)C)n1', 'logD at 24 h', 2.15),
  ('CC(C)Oc1ccc(-c2nsc(Nc3cc(C(F)(F)F)c(C(C)C)cn3)n2)nc1', 'logD at 24 h', 2.8),
  ('CC(C)Oc1cnc(-c2nsc(Nc3ncccc3N(C)C(=O)C3CC3)n2)cc1C(F)(F)F', 'logD at 24 h', 3.63),
  ('CC(C)Oc1ccc(-c2nsc(Nc3ncccc3C(C)C)n2)nc1', 'logD at 24 h', 2.85);

// query # lookup: logD at 24 h of CC(C)Oc1ccc(-c2nsc(N(C)c3ncccc3C(C)C)n2)nc1
// result 3

// query Okay, and Cc1cccnc1Nc1nc(-c2cc(C#N)c(OC(C)C)cn2)ns1 ?
// result 2.3

// query Now the same for CC(C)c1cccnc1Nc1nc(-c2ccc(OC3CC3)cn2)ns1
// result 2.5

// query And the next one, Cc1cccnc1Nc1nc(-c2cc(C3CCN(C)CC3)ccn2)ns1 ?
// result 2

// query How about Cc1cccnc1Nc1nc(-c2cc(C(=O)N(C)C)c(OC(C)C)cn2)ns1 ?
// result 2.3

* * *

# test: Mouse pharmacokinetics
# Format: in vivo
# condition_description: brain and plasma; female BALB/c mouse, PO 30 mg/kg, 2 h; read-out: brain/plasma [b]/[p]
endpoint_name: Kp at 2 h
I'd appreciate a reply containing only the number, no unit.

// query Look at this molecule and give its reported Kp at 2 h. CC(C)Oc1ccc(-c2nsc(Nc3ncccc3N(C)C)n2)nc1
// result 1.1

* * *

# test: Mouse pharmacokinetics
# Type: in vivo
# condition_description: female BALB/c mouse, PO 30 mg/kg
endpoint_name: Cmax
Reply with the number, then its unit.

// query Cmax lookup needed for CC(C)Oc1ccc(-c2nsc(Nc3ncccc3N(C)C)n2)nc1 , thanks.
// result 5.18 µM

* * *

# test: LogD measurement (octanol-water)
# Format: physicochemical
# condition_description: pH 7.4; read-out: logD
endpoint_name: logD at 24 h
Reply with just the number.

// query Need logD at 24 h, item COc1cccnc1Nc1nc(-c2ccc(OC(C)C)cn2)ns1 [Compound 28]
// result 1.7

// query Now the compound CC(=O)N(C)c1cnc(Nc2nc(-c3ccc(OC(C)C)cn3)ns2)c(C)c1 [Compound 51]
// result 2.2

// query Would you kindly repeat that for Cc1cccnc1Nc1nc(-c2ccc(OC3CC4(C3)CN(C3CC3)C4)cn2)ns1 [Compound 12] ?
// result 2.1

// query Also need CC(C)Oc1ccc(-c2nsc(Nc3ncccc3C(=O)N(C)C)n2)nc1 [Compound 61] , thanks.
// result 2.1

// query Try the compound CC(C)Oc1cnc(-c2nsc(Nc3ncccc3N(C)C)n2)cc1C(F)(F)F [Compound 34]
// result 2.9

// query Same read-out for Cc1cccnc1Nc1nc(-c2cc(C(=O)N(C)C)ccn2)ns1 [Compound 16] ?
// result 1.9

* * *

# test: LogD measurement (octanol-water)
# Type: physicochemical
# condition_description: supplement; read-out: measured logD
The reader will find reported logD at 24 h values listed item by item below.

Reference set (8 entries):
INSERT INTO results (molecule, result) VALUES
  ('Cc1cccnc1Nc1nc(-c2cc(C3CCN(C)CC3)ccn2)ns1', 2),
  ('Cc1cccnc1N(C)c1nc(-c2ccc(OC(C)C)cn2)ns1', 2.35),
  ('COc1cccnc1Nc1nc(-c2ccc(OC(C)C)cn2)ns1', 1.7),
  ('Cc1cccnc1Nc1nc(-c2ccc(OC3CCN(C4CC4)CC3(F)F)cn2)ns1 (stereo not drawn)', 2.8),
  ('CC(=O)N(C)c1cc(C(F)(F)F)cnc1Nc1nc(-c2ccc(OC(C)C)cn2)ns1', 3.13),
  ('CC(C)Oc1ccc(-c2nsc(Nc3ncccc3N(C)C)n2)nc1', 3.23),
  ('Cc1cccnc1Nc1nc(-c2ccc(OC3CCOCC3)cn2)no1', 1.7),
  ('CC(C)Oc1cnc(-c2nsc(Nc3ncccc3N3CCCC3=O)n2)cc1C(F)(F)F', 2.7);

Proceed to the following item.
// query Given the entry Cc1cccnc1Nc1nc(-c2ccc(C(=O)N(C)C)cn2)ns1 , report its measured logD at 24 h.
// result 1.7

* * *

# test: LogD measurement (octanol-water)
# Format: physicochemical
# condition_description: pH 7.4; read-out: logD
logD at 24 h below 2 gives N; logD at 24 h at or above it gives Y.

Answered examples (4):
INSERT INTO measurements (chemical_smiles, cat) VALUES
  ('CN1CCC(Oc2ccc(Nc3nc(-c4ccccn4)ns3)nc2)CC1', 'N'),
  ('CC(C)Oc1ccc(-c2nsc(Nc3ncccc3C(N)=O)n2)nc1', 'N'),
  ('CC(C)Oc1ccc(-c2nsc(Nc3ncc(C(F)(F)F)cc3C(=O)N(C)C)n2)nc1', 'Y'),
  ('CC(C)c1ccnc(-c2nsc(Nc3ncccc3C(F)(F)F)n2)c1', 'Y');

// query Exam item: decide whether the reported logD at 24 h for CC(=O)N(C)c1cc(C(F)(F)F)cnc1Nc1nc(-c2ccc(OC(C)C)cn2)ns1 is at least 2.
// result Y

* * *

# test: Mouse pharmacokinetics
# Type: in vivo
# condition_description: male CD-1 mouse, PO 30 mg/kg suspension
# Excerpt: All animal experiments were approved by the Institutional Animal Care and Use Committee (IACUC) of Bristol Myers Squibb.
# key: entry, value: AUC(0-inf)
# value in µM·h; strip the unit string

// below: answered molecules
INSERT INTO assay_data (chemical_smiles, quantity_unit, quantitative_result) VALUES
  ('Cc1cccnc1Nc1nc(-c2ccc(OC(C)C)cn2)ns1', 'µM·h', 26.0),
  ('CC(C)Oc1ccc(-c2nsc(Nc3ncccc3C(C)C)n2)nc1', 'µM·h', 20.0),
  ('COc1ccc(Nc2nc(-c3ccccn3)cs2)nc1', 'µM·h', 1.58),
  ('COc1ccc(Nc2nc(-c3ccccn3)ns2)nc1', 'µM·h', 3.61),
  ('Cc1cccnc1Nc1nc(-c2ccc(OC3CCN(C4CC4)CC3)cn2)ns1', 'µM·h', 6.23);

Next molecule, please.
// query Name the reported AUC(0-inf) value associated with the molecule CN(C)c1cccnc1Nc1nc(-c2ccc(OC3CC3)cn2)ns1
// result 3.85

* * *

# test: Kinetic solubility measurement
# Format: physicochemical
# condition_description: 10 mM DMSO stock solutions
Is solubility kinetic at 24 h at least 10 µM? Then 1 (yes). If not, 0 (no).

Solved cases below.
INSERT INTO results (molecule, cat) VALUES
  ('CC(C)c1ccnc(-c2nsc(Nc3cc(C(F)(F)F)ccn3)n2)c1 [Compound 35]', '0 (no)'),
  ('Cc1cccnc1Nc1nc(-c2cc(C(=O)N(C)C)ccn2)ns1 [Compound 16]', '1 (yes)');

// query Hi team, for CC(C)Oc1ccc(-c2nsc(Nc3cc(C(F)(F)F)c(C(C)C)cn3)n2)nc1 [Compound 37] , is the recorded solubility kinetic at 24 h at or above 10 µM?
// result 0 (no)

// query What do you get for Cc1cccnc1Nc1nsc(-c2ccc(OC3CCOCC3)cn2)n1 [Compound 5] ?
// result 1 (yes)

// query What do we get for CC(C)Oc1cnc(-c2nsc(Nc3ncccc3N(C)C(=O)C3CC3)n2)cc1C(F)(F)F [Compound 49] ?
// result 0 (no)

// query What do you have for CC(=O)N(C)c1cc(C(F)(F)F)cnc1Nc1nc(-c2ccc(OC(C)C)cn2)ns1 [Compound 54] ?
// result 1 (yes)

// query Follow-up item: CC(C)c1cnc(Nc2nc(-c3ncccc3OC3CC3)ns2)cc1C(F)(F)F [Compound 38]
// result 0 (no)

// query Note, next up: Cc1cccnc1Nc1nc(-c2cc(C(=O)N(C)C)c(OC(C)C)cn2)ns1 [Compound 17]
// result 1 (yes)

// query Another: Cc1cccnc1Nc1nnc(-c2ccc(OC3CCOCC3)cn2)o1 [Compound 7]
// result 1 (yes)
